Data credit: paper PMC10641528

# ASSAY_TARGET: T1, DRP1, endogenous (dynamin family GTPase) (human (endogenous in HCT116), UniProt O00429 1-736)
# T1 construct: DRP1 endogenous in HCT116 cells; Immunoprecipitated with mouse monoclonal DRP1 antibody sc-271583; source: endogenous, HCT116 lysate (PFA cross-linked cells)
# T1 sequence (O00429 whole entry): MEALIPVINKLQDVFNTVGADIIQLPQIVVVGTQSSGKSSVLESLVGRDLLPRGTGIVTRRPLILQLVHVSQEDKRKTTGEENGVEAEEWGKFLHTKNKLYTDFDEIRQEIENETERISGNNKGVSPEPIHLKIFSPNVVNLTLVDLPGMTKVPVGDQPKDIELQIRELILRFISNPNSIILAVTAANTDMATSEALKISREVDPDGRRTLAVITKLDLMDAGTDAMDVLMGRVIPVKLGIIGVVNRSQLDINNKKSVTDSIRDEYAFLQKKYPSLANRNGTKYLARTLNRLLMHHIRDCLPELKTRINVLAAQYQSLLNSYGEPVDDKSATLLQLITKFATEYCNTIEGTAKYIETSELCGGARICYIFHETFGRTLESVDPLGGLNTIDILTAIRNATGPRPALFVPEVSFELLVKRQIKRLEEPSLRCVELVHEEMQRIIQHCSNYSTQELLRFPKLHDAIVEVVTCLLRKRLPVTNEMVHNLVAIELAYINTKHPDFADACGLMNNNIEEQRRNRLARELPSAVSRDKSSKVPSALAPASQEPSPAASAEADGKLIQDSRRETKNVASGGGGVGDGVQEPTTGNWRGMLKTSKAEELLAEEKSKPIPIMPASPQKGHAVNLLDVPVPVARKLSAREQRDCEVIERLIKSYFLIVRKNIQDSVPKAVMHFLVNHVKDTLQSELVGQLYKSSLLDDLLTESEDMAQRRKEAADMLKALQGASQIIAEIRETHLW
# PROTOCOL: co-IP; endogenous DRP1 immunoprecipitated (mouse monoclonal sc-271583 on protein A/G beads) from lysates of HCT116 cells transfected with pcDNA or pcDNA-FIS1 variants and cross-linked with 0.25% PFA; FIS1 blotted; scored as ratio of immunoprecipitated to input FIS1; lysis buffer 10 mM Tris/Cl pH 7.5, 150 mM NaCl, 0.5 mM EDTA, 0.5% NP-40 substitute
# CONDITION_DETAILS: partners not purified
MEASURE_NAME: ratio of immunoprecipitated to input FIS1
// return just the number, without any unit appended

BINDER: FIS1 ΔSKY variant (SKY insert deleted) (natural protein, human, human FIS1 with S45, K46, Y47 deleted, expressed from pcDNA; source: HCT116, transfected, in lysate (PFA cross-linked cells)) MEAVLNELVSVEDLLKFEKKFQSEKAAGSVSKSTQFEYAWCLVRNDDIRKGIVLLEELLPKGSKEEQRDYVFYLAVGNYRLKEYEKALKYVRGLLQTEPQNNQAKELERLIDKAMKKDGLVGMAIVGGMALGVAGLAGLIGL
OBSERVED_MEASUREMENT: 1.3

Moving on to another binder below.
Per the records, this binder ( Mitochondrial fission protein 1 (FIS1), wildtype, ectopically expressed from pcDNA-FIS1 WT (natural protein, human, human mitochondrial fission protein 1 (FIS1), wildtype, expressed from pcDNA; No tag is mentioned; detected with an anti-FIS1 antibody; also called WT FIS1; source: HCT116, transfected, in lysate (PFA cross-linked cells)) MEAVLNELVSVEDLLKFEKKFQSEKAAGSVSKSTQFEYAWCLVRSKYNDDIRKGIVLLEELLPKGSKEEQRDYVFYLAVGNYRLKEYEKALKYVRGLLQTEPQNNQAKELERLIDKAMKKDGLVGMAIVGGMALGVAGLAGLIGL ) has ratio of immunoprecipitated to input FIS1 equal to 0.7
